Tested on: SEM cells
Experiment: cell viability relative to DMSO control; higher = less cytotoxic
Conditions: HPLM + 10% dialyzed FBS; 48 h; 5.12 µM
Measurement kind: cell viability (%)
The reply should contain only the number, in %.

-- ask Can you share its cell viability? I mean this compound: NC(=O)c1cccc2cn(-c3ccc([C@@H]4CCCNC4)cc3)nc12
-- reply 91.8

-- ask Can you share its cell viability? I mean this compound: C=CC(=O)Nc1cccc(Nc2nc(NC3CCC(N(C)C)CC3)nc3c2ncn3C(C)C)c1 (stereo not drawn)
-- reply 9.48

-- ask Can you share its cell viability? I mean this compound: COc1cccc([C@@H](C)NCCCc2ccccc2Cl)c1
-- reply 107

-- ask Can you share its cell viability? I mean this compound: Nc1ncnc2ccccc12
-- reply 90.5

-- ask Can you share its cell viability? I mean this compound: CCC\C1=C\C(=O)NC(=S)N1
-- reply 79.2

-- ask Can you share its cell viability? I mean this compound: CC/1=C(/C(CC(=O)N1)C2=CC=C(C=C2)C(F)(F)F)C(=O)NC3=C(F)C=C4[NH]N=CC4=C3 (stereo not drawn)
-- reply 114

-- ask Can you share its cell viability? I mean this compound: O=C(O)COCCN1CCN(C(c2ccccc2)c2ccc(Cl)cc2)CC1 (stereo not drawn)
-- reply 111

-- ask Can you share its cell viability? I mean this compound: Cc1cc(C(=O)N2CCN(c3cccc(Cl)c3)CC2)n(-c2ccccc2)n1
-- reply 25.5

-- ask Can you share its cell viability? I mean this compound: COc1cc2nc(-c3cc(F)ccc3O)nc(N[C@@H]3CNC[C@H]3C(C)(C)O)c2cc1OC
-- reply 28.3

-- ask Can you share its cell viability? I mean this compound: CO/C1=C/C(C)=C\[C@@H](C)[C@@H](O)[C@@H](C)C/C(C)=C\C=C/[C@H](OC)[C@@H]([C@@H](C)[C@@H](O)[C@H](C)[C@@]2(O)C[C@@H](O)[C@H](C)[C@@H](C(C)C)O2)OC1=O
-- reply 32

-- ask Can you share its cell viability? I mean this compound: CN[C@@H]1Cc2cccc3[nH]c(=O)n(c23)C1
-- reply 104

-- ask Can you share its cell viability? I mean this compound: CN[C@@H](C)C(=O)N[C@H]1CN(C(=O)CC(C)C)CC[C@H]2CC[C@@H](C(=O)NC(c3ccccc3)c3ccccc3)N2C1=O
-- reply 99.9

-- ask Can you share its cell viability? I mean this compound: OC(=O)C(CC/1=C/C(=O)NC2=CC=CC=C12)NC(=O)C3=CC=C(Cl)C=C3 (stereo not drawn)
-- reply 121

-- ask Can you share its cell viability? I mean this compound: O=C(Oc1ccc([N+](=O)[O-])cc1)N1CCC(C(O)(c2ccc3c(c2)OCO3)c2ccc3c(c2)OCO3)CC1
-- reply 46.6

-- ask Can you share its cell viability? I mean this compound: C[C@]12CC[C@H]3[C@@H](CCC/4=C/C(=O)CC[C@]34C)[C@@H]1CC[C@@H]2O
-- reply 136

-- ask Can you share its cell viability? I mean this compound: COc1cc(OC)c(OC)cc1C=O
-- reply 122

-- ask Can you share its cell viability? I mean this compound: NC(=O)c1cccc2nc(-c3ccc([C@H]4CCCN4)cc3F)[nH]c12
-- reply 61.6

-- ask Can you share its cell viability? I mean this compound: CN(C)CCOc1ccc(-c2nc(-c3ccncc3)c(-c3ccc4c(c3)CC/C4=N\O)[nH]2)cc1
-- reply 112

Reference for the values: the supplement of paper PMC11451515
